molecular target: Dappu-RPCHR (Daphnia pulex RPCH receptor) (Daphnia pulex, UniProt A0A240FBD5); test: in vitro cell-based bioluminescence (aequorin Ca2+) assay on Dappu-RPCHR expressing CHO-WTA11 cells; details: Table 2; analogues of Dappu-RPCH
pEC50: −log10 of the molar value. Where a SMILES comes first, the peptide text is derived from it. [ ]: non-standard residue; d: D form. pGlu = O=C1CC[C@@H](C(=O)O)N1
Listing: pEC50 of selected molecules
READOUT: pEC50

• CC(C)[C@H](NC(=O)[C@@H]1CCC(=O)N1)C(=O)N[C@@H](CC(N)=O)C(=O)N[C@@H](Cc1ccccc1)C(=O)N[C@@H](CO)C(=O)N[C@@H](C)C(=O)N[C@@H](CO)C(=O)N[C@@H](Cc1c[nH]c2ccccc12)C(N)=O [[Ala^6]Dappu-RPCH, pQVNFSASWamide] ([pGlu]VNFSASW-NH2) = 9.27
• CC(=O)N[C@@H](C)C(=O)N[C@H](C(=O)N[C@@H](CC(N)=O)C(=O)N[C@@H](Cc1ccccc1)C(=O)N[C@@H](CO)C(=O)N[C@H](C(=O)N[C@@H](CO)C(=O)N[C@@H](Cc1c[nH]c2ccccc12)C(N)=O)[C@@H](C)O)C(C)C [[N-Ac-Ala^1]Dappu-RPCH, [NAc-Ala]-VNFSTSWamide] (Ac-AVNFSTSW-NH2) = 7.31
• CC(C)[C@H](NC(=O)[C@@H]1CCC(=O)N1)C(=O)N[C@@H](CC(N)=O)C(=O)N[C@@H](Cc1ccccc1)C(=O)N[C@@H](CO)C(=O)N[C@H](C(=O)N[C@@H](CO)C(=O)N[C@@H](C)C(N)=O)[C@@H](C)O [[Ala^8]Dappu-RPCH, pQVNFSTSAamide] ([pGlu]VNFSTSA-NH2) = 6.88

###

biological target: Dappu-RPCHR (Daphnia pulex RPCH receptor) (Daphnia pulex, UniProt A0A240FBD5); assay: in vitro cell-based bioluminescence (aequorin Ca2+) assay on Dappu-RPCHR expressing CHO-WTA11 cells; conditions: Table 2; analogues of Dappu-RPCH
Where a SMILES comes first, the peptide text is derived from it. [ ]: non-standard residue; d: D form. pGlu = O=C1CC[C@@H](C(=O)O)N1
Listing: EC50 of selected compounds
READOUT: EC50 (nM)

* CC(C)[C@H](NC(=O)[C@@H]1CCC(=O)N1)C(=O)N[C@@H](CC(N)=O)C(=O)N[C@@H](Cc1ccccc1)C(=O)N[C@@H](CO)C(=O)N[C@H](C(=O)N[C@@H](C)C(=O)N[C@@H](Cc1c[nH]c2ccccc12)C(N)=O)[C@@H](C)O [[Ala^7]Dappu-RPCH, pQVNFSTAWamide] ([pGlu]VNFSTAW-NH2) | 0.355
* C[C@H](NC(=O)[C@@H]1CCC(=O)N1)C(=O)N[C@@H](CC(N)=O)C(=O)N[C@@H](Cc1ccccc1)C(=O)N[C@@H](CO)C(=O)N[C@H](C(=O)N[C@@H](CO)C(=O)N[C@@H](Cc1c[nH]c2ccccc12)C(N)=O)[C@@H](C)O [[Ala^2]Dappu-RPCH, pQANFSTSWamide] ([pGlu]ANFSTSW-NH2) | 17.7

###

target: Dappu-RPCHR (Daphnia pulex RPCH receptor) (Daphnia pulex); test: in vitro cell-based bioluminescence (aequorin Ca2+) assay on Dappu-RPCHR expressing CHO-WTA11 cells; conditions: from EC50 values
Where a SMILES comes first, the peptide text is derived from it. [ ]: non-standard residue; d: D form. pGlu = O=C1CC[C@@H](C(=O)O)N1
Listing: fold lower affinity / potency relative to Dappu-RPCH of selected compounds
READOUT: fold lower affinity / potency relative to Dappu-RPCH (fold)

* CC(C)[C@H](NC(=O)[C@@H]1CCC(=O)N1)C(=O)N[C@@H](CC(N)=O)C(=O)N[C@@H](Cc1ccccc1)C(=O)N[C@@H](CO)C(=O)N[C@H](C(=O)N[C@@H](CO)C(=O)N[C@@H](Cc1c[nH]c2ccccc12)C(=O)O)[C@@H](C)O [[Trp-OH]Dappu-RPCH, pQVNFSTSW-OH] ([pGlu]VNFSTSW-OH) | 270
* CC(=O)N[C@@H](C)C(=O)N[C@H](C(=O)N[C@@H](CC(N)=O)C(=O)N[C@@H](Cc1ccccc1)C(=O)N[C@@H](CO)C(=O)N[C@H](C(=O)N[C@@H](CO)C(=O)N[C@@H](Cc1c[nH]c2ccccc12)C(N)=O)[C@@H](C)O)C(C)C [[N-Ac-Ala^1]Dappu-RPCH, [NAc-Ala]-VNFSTSWamide] (Ac-AVNFSTSW-NH2) | 750

###

Listing: pEC50 of selected compounds
Molecular target: Dappu-RPCHR (Daphnia pulex RPCH receptor) (Daphnia pulex)
Sequence (A0A240FBD5 1-451): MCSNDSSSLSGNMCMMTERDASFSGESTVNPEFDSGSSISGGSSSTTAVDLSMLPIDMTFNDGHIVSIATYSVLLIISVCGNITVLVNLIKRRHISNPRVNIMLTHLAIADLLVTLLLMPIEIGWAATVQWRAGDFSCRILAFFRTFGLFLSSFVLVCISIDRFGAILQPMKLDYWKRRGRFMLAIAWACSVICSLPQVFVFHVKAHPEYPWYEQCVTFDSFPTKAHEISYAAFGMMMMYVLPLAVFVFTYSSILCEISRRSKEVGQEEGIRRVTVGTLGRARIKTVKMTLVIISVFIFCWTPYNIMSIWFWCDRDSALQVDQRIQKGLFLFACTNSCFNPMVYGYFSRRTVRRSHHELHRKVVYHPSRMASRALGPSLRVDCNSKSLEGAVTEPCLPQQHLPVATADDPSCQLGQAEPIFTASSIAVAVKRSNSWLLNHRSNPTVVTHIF
Assay: in vitro cell-based bioluminescence (aequorin Ca2+) assay on Dappu-RPCHR expressing CHO-WTA11 cells
Settings: Table 1; AKH/RPCH and related peptides; calculated from dose-response curves
pEC50: −log10 of the molar value. Where a SMILES comes first, the peptide text is derived from it. [ ]: non-standard residue; d: D form. pGlu = O=C1CC[C@@H](C(=O)O)N1
READOUT: pEC50

- CC(C)[C@H](NC(=O)[C@@H]1CCC(=O)N1)C(=O)N[C@@H](CC(N)=O)C(=O)N[C@@H](Cc1ccccc1)C(=O)N[C@@H](CO)C(=O)N[C@H](C(=O)NCC(=O)N[C@@H](Cc1c[nH]c2ccccc12)C(N)=O)[C@@H](C)O [Grybi-AKH, pQVNFSTGWamide] ([pGlu]VNFSTGW-NH2): 10.18
- CC(C)[C@H](NC(=O)[C@@H]1CCC(=O)N1)C(=O)N[C@@H](CC(N)=O)C(=O)N[C@@H](Cc1ccccc1)C(=O)N[C@H](C(=O)N1CCC[C@H]1C(=O)N[C@@H](CO)C(=O)N[C@@H](Cc1c[nH]c2ccccc12)C(N)=O)[C@@H](C)O [Libau-AKH, pQVNFTPSWamide] ([pGlu]VNFTPSW-NH2): 9.75
- CC(C)[C@H](NC(=O)[C@@H]1CCC(=O)N1)C(=O)N[C@@H](CC(N)=O)C(=O)N[C@@H](Cc1ccccc1)C(=O)N[C@@H](CO)C(=O)N[C@H](C(=O)N[C@@H](CCCCN)C(=O)N[C@@H](Cc1c[nH]c2ccccc12)C(N)=O)[C@@H](C)O [Argsi-RPCH, pQVNFSTKWamide] ([pGlu]VNFSTKW-NH2): 7.67
- CC(C)C[C@H](NC(=O)[C@@H]1CCC(=O)N1)C(=O)N[C@@H](CC(N)=O)C(=O)N[C@@H](Cc1ccccc1)C(=O)N[C@@H](CO)C(=O)N1CCC[C@H]1C(=O)N[C@@H](CO)C(=O)N[C@@H](Cc1c[nH]c2ccccc12)C(N)=O [Corpu-AKH, pQLNFSPSWamide] ([pGlu]LNFSPSW-NH2): 9.67
- CC(C)[C@H](NC(=O)[C@@H]1CCC(=O)N1)C(=O)N[C@@H](CC(N)=O)C(=O)N[C@@H](Cc1ccccc1)C(=O)N[C@@H](CO)C(=O)N1CCC[C@H]1C(=O)N[C@@H](CC(N)=O)C(=O)N[C@@H](Cc1c[nH]c2ccccc12)C(N)=O [Peram-CAH-I, pQVNFSPNWamide] ([pGlu]VNFSPNW-NH2): 9.41

###

Biological target: Dappu-RPCHR (Daphnia pulex RPCH receptor) (Daphnia pulex, UniProt A0A240FBD5)
Sequence (A0A240FBD5 1-451): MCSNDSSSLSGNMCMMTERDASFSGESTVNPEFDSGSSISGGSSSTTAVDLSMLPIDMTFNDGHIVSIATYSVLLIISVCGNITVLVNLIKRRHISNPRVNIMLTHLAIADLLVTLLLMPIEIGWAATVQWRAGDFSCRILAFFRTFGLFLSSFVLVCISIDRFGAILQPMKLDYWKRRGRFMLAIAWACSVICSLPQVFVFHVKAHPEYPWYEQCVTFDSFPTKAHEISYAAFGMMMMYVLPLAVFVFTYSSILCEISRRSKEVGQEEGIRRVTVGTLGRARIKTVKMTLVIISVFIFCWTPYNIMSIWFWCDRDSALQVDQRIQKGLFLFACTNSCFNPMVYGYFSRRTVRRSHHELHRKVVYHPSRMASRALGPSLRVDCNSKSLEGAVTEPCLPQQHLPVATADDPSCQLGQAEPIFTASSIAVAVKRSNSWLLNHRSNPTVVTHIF
Assay: in vitro cell-based bioluminescence (aequorin Ca2+) assay on Dappu-RPCHR expressing CHO-WTA11 cells
Conditions: from EC50 values
Where a SMILES comes first, the peptide text is derived from it. [ ]: non-standard residue; d: D form. pGlu = O=C1CC[C@@H](C(=O)O)N1
READOUT: fold lower affinity / potency relative to Dappu-RPCH

- CC(C)C[C@H](NC(=O)[C@@H]1CCC(=O)N1)C(=O)N[C@@H](CC(N)=O)C(=O)N[C@@H](Cc1ccccc1)C(=O)N[C@@H](CO)C(=O)N[C@@H](CO)C(=O)NCC(=O)N[C@@H](Cc1c[nH]c2ccccc12)C(N)=O [Nepci-AKH, pQLNFSSGWamide] ([pGlu]LNFSSGW-NH2): about 4 fold
- CC(C)C[C@H](NC(=O)[C@@H]1CCC(=O)N1)C(=O)N[C@@H](CC(N)=O)C(=O)N[C@@H](Cc1ccccc1)C(=O)N[C@@H](CO)C(=O)N[C@H](C(=O)NCC(=O)N[C@@H](Cc1c[nH]c2ccccc12)C(N)=O)[C@@H](C)O [Schgr-AKH-II, pQLNFSTGWamide] ([pGlu]LNFSTGW-NH2): about 4 fold
